experiment: Single-dose pharmacokinetics in monkeys (p.o. and i.v.); assay type: in vivo, monkey; conditions: monkey, plasma, intravenous, 0.5 mg/kg, monkey, 0,5 mg/kg i.v., 8 h, single animals; read-out: plasma conc
experimental.readout: concentration at 8 h (ng/mL)

compound: CC#C[C@@H](CC(=O)O)c1ccc(OCC(C)=C(C)C)cc1 [CPL207280]
reported.result: 10.2

----------
assay: Single-dose pharmacokinetics in rats (p.o. and i.v.); assay type: in vivo, rat; conditions: rat, plasma, iv, 3 mg/kg, rat, 3 mg/kg i.v., 2 h, single animals; read-out: plasma conc
experimental.readout: concentration at 2 h (ng/mL)

compound: CC#C[C@@H](CC(=O)O)c1ccc(OCC(C)=C(C)C)cc1 [CPL207280]
experimental.readout: concentration at 2 h
reported.result: 3720
